Source of measurements: patent US20230174526A1

# protocol_description: In vivo pharmacokinetic parameter testing in mice
# Set-up: species or system ICR mice
# measurement_parameters: male, ICR, mouse, plasma, iv(1 mg/kg), read-out: Half-life T½ (converted)
outcome_measure: half-life (h)
API: value field is a number in h; no unit string.

Worked examples follow.
compound: C=CC(=O)N1C[C@@H]2C(=O)N(C)c3cnc4c(F)c(-c5ccc(F)c6sc(N)nc56)c(Cl)cc4c3N2C[C@H]1C (single isomer, unassigned)
half-life [h]: 1.1

compound: C=CC(=O)N1CCN(c2c(C#N)c(N3CC(N(C)C)C3)nc3c(F)c(-c4ccc(F)c5sc(N)nc45)c(Cl)cc23)CC1
half-life [h]: 1.3

q: Any idea what half-life was measured for C=CC(=O)N1CCN(c2c(C#N)c(OC[C@@H]3CCCN3C)nc3c(F)c(-c4ccc(F)c5sc(N)nc45)c(Cl)cc23)CC1 ?
a: 6.5

q: Any idea what half-life was measured for C=CC(=O)N1CCN(c2c(C#N)cnc3c(F)c(-c4ccc(F)c5sc(N)nc45)c(Cl)cc23)CC1 ?
a: 0.52
